Source: ChEMBL document CHEMBL3045436

Entries and their inhibition at 500 µg/mL values follow.
System: Tobacco mosaic virus
Test: Antiviral activity against Tobacco mosaic virus (TMV) in tobacco leaf juice at 500 ug/ml after 72 hr by half-leaf method
Type: functional

Look over these answered cases.
COc1ccc2c3c(c4cc(OC)c(OC)cc4c2c1)C[C@H]1CCCN1C3 [(-)-ANTOFINE]; 65.8%
COc1cc2c3c(c4ccc(OC(C)=O)cc4c2cc1OC)CN1CCC[C@H]1C3; 68.7%
COc1cc2c3c(c4ccc(O)cc4c2cc1OC)CN1CCC[C@@H]1C3; 70.5%
CCOc1ccc2c3c(c4cc(OC)c(OC)cc4c2c1)C[C@H]1CCCN1C3; 50%

Would you kindly look at the next entry?
// query What value of inhibition at 500 µg/mL has been recorded for this entry: "COc1cc2c3c(c4ccc(OCC#N)cc4c2cc1OC)CN1CCC[C@H]1C3"
// result 60%
